Known IC50 of a selection of compounds
tested.on: METTL3/METTL14 (Homo sapiens, UniProt Q86U44)
Sequence (Q86U44 whole entry, species assumed): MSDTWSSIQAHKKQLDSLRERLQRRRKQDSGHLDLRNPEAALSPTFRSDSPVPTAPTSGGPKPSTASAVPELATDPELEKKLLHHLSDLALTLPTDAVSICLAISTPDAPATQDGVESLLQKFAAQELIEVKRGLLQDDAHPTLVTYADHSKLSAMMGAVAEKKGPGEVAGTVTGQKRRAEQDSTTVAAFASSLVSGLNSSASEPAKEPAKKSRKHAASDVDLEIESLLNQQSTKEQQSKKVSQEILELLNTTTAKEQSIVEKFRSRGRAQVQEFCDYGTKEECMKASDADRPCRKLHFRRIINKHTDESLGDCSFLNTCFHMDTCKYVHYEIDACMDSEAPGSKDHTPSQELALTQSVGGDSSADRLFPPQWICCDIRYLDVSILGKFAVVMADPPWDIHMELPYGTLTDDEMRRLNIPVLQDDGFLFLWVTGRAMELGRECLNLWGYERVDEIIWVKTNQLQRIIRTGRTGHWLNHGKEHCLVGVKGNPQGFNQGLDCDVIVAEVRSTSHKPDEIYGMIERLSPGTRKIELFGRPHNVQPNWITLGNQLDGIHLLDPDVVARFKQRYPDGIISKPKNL
Sequence (Q9HCE5 whole entry partner, species assumed): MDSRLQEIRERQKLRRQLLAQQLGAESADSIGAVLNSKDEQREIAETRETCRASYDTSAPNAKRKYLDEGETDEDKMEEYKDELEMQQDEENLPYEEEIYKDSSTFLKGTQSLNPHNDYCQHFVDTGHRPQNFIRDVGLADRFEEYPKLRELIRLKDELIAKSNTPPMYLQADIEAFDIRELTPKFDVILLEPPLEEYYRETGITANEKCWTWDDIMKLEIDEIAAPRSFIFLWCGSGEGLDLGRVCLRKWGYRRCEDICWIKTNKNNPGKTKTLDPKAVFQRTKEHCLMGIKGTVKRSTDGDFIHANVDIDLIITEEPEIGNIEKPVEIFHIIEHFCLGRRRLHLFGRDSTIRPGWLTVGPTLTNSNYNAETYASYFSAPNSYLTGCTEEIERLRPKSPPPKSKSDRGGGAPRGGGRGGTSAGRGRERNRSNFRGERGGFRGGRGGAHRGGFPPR
assay.summary: METTL3-14 Standard Enzyme Assay (METTL3 biochemical assay)
setup.conditions: METTL3 biochemical assay; read-out: METTL3 IC50
Description: Assays were performed in a 25 μl-volume in 384-well V-bottom polypropylene microplates (Greiner Bio-One, cat. No. 781280) at ambient temperature. Optimized 1× assay buffer was 20 mM HEPES pH 7.5, 50 mM KCl, 250 μM MgCl2, 1 mM DTT, 0.01% Tween, 0.01% BSG, 0.004 U/μl RNAseOUT (cat. No. 10777019, ThermoFisher Scientific, Waltham, Mass.). […] Following two washing cycles with 0.1% Tween-20, the plates were sealed and read on a TopCount (PerkinElmer, Waltham, Mass.) plate-based scintillation counter. […]

compound | IC50
CNc1ccc2ccc(OC[C@H]3O[C@@H](n4cc(C5CC5)c5c(N)ncnc54)[C@@H](F)[C@@H]3O)cc2n1 | < 0.01 µM
CNc1ccc2ccc(OC[C@H]3O[C@@H](n4cc(Br)c5c(N)nc(N)nc54)[C@@H](F)[C@@H]3O)cc2n1 | 0.1 to 1 µM
Nc1ncnc2c1ccn2[C@@H]1O[C@H](COc2ccc3ccc(N[C@H]4C[C@@H](N)C4)nc3c2)[C@@H](O)[C@@H]1F | 0.1 to 1 µM
CNc1ccc2ccc(OC[C@H]3O[C@@H](n4cc([C@@H]5CCCO5)c5c(N)ncnc54)[C@@H](F)[C@@H]3O)cc2n1 | < 0.01 µM
Cc1cc(N)c2ccc(OC[C@H]3O[C@@H](n4cc(Br)c5c(N)ncnc54)C[C@@H]3O)cc2n1 | 0.1 to 1 µM
Nc1cc(C2CC2)nc2cc(OC[C@H]3O[C@@H](n4cc(Br)c5c(N)ncnc54)[C@@H](F)[C@@H]3O)ccc12 | 0.01 to 0.1 µM
CN(C)c1ccc2ccc(CC[C@H]3C[C@@H](n4ccc5c(N)ncnc54)[C@H](O)[C@@H]3O)cc2n1 | 0.01 to 0.1 µM
Nc1ncnc2c1ccn2[C@@H]1C[C@H](CCc2ccc3cc[nH]c3c2)[C@@H](O)[C@H]1O | > 1 µM
Nc1ncnc2c1ccn2[C@@H]1C[C@H](CCc2ccc3ccc(NCCO)nc3c2)[C@@H](O)[C@H]1O | 0.1 to 1 µM
CCNc1ccc2ccc(OC[C@H]3O[C@@H](n4cc(Cl)c5c(N)ncnc54)[C@@H](F)[C@@H]3O)cc2n1 | < 0.01 µM
Nc1ncnc2c1ccn2[C@H]1C[C@H](O)[C@@H](CCc2ccc3ccc(N4CCC4)nc3c2)O1 | 0.01 to 0.1 µM
CNc1ccc2ccc(OC[C@H]3C[C@@H](n4cc(C5CCCC5)c5c(N)ncnc54)C[C@@H]3O)cc2n1 | 0.01 to 0.1 µM
Nc1ncnc2c1c([C@@H]1CCCO1)cn2[C@@H]1O[C@H](COc2ccc3ccc(N4CCC4)nc3c2)[C@@H](O)[C@@H]1F [I-158] | < 0.01 µM
Nc1ncnc2c1ccn2[C@@H]1C[C@H](CCc2ccc3cncnc3c2)[C@@H](O)[C@H]1O | > 1 µM
